The measurements presented in this section are drawn from patent US20260015426A1.

EXPERIMENTAL_SYSTEM: T1, human IL1RAP (hu-IL1RAP) on human cells (human, UniProt Q9NPH3 21-570)
T1 sequence: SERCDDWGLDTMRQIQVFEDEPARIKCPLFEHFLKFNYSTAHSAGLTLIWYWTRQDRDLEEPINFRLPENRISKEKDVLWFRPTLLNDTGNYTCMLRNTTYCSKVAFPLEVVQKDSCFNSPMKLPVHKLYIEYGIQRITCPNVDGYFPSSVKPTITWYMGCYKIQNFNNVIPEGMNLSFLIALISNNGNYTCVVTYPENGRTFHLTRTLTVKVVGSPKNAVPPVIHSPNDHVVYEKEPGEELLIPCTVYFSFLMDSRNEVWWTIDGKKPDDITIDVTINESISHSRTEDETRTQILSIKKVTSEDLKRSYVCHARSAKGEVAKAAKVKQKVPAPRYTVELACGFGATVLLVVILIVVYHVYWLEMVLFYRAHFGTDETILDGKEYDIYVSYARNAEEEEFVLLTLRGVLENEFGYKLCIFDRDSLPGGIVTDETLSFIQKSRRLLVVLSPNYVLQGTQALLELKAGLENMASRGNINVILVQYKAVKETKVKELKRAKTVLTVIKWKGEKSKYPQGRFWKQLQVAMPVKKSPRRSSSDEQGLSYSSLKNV
RUN_DESCRIPTION: cell-based or functional assay
Consider the following binders; for each one, report its HEK-Blue, IL-1β, % inhibition at 100 nM (Fab).
State the answer as a number, implicitly in %.

Tell us which HEK-Blue, IL-1β, % inhibition at 100 nM (Fab) value is on record for K10/H3 Fab (VL-A51Y, VH-V51S) (Fab, V domains shown, Fab with 8xHis tag) VH: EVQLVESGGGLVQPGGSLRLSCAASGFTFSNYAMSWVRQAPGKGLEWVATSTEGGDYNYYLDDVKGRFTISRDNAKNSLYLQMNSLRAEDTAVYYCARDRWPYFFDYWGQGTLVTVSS VL: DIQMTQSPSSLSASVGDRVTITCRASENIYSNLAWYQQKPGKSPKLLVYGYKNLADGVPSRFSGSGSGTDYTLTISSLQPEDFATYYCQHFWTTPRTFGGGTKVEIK
99

Tell us which HEK-Blue, IL-1β, % inhibition at 100 nM (Fab) value is on record for K10 Fab (VL A51Y) (Fab, V domains shown, Fab with 8xHis tag) VH: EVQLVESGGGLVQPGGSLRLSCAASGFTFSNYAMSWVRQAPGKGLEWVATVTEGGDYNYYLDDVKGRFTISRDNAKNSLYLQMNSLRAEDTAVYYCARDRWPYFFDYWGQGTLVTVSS VL: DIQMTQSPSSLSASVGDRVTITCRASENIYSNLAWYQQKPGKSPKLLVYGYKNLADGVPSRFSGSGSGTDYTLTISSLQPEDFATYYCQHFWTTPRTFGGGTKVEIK
100
